Target: hERG (Homo sapiens, UniProt Q12809)
Assay: hERG current, PatchXpress 7000A automatic parallel patch clamp in hERG-transfected HEK 293 cells (Example 6)
Conditions: human, HEK 293 cells stably transfected with hERG cDNA, Individual Data (% Inhibition), 10 μM, single cell
experimentalReadout: inhibition at 5 min, 10 µM

**Query** Quick check: inhibition at 5 min, 10 µM on hERG (Homo sapiens, UniProt Q12809), item COc1ccc2c(c1)CNCCS2 ?
**Result** 56.4%

**Query** Subsequent entry: CCN(CC)C(=O)N1CCSc2ccccc2C1
**Result** 14.7%

**Query** Could you do the same for O=C(N1CCNCC1)N1CCSc2ccccc2C1 , please?
**Result** 28.4%

**Query** Try the molecule CCN(CC)C(=O)N1CCSc2ccc(OC)cc2C1
**Result** 15.2%

**Query** Ok, now O=C(N1CCN(Cc2ccc3c(c2)OCO3)CC1)N1CCSc2ccccc2C1
**Result** 66.7%

**Query** Also COc1ccc2c(c1)CN(C(=O)N1CCNCC1)CCS2 , if possible.
**Result** 32%

**Query** Please do the same for COC(=O)C(=O)N1CCSc2ccccc2C1 as well.
**Result** 10%

----------
Biological target: hERG current (Homo sapiens, UniProt Q12809)
Sequence (Q12809 whole entry): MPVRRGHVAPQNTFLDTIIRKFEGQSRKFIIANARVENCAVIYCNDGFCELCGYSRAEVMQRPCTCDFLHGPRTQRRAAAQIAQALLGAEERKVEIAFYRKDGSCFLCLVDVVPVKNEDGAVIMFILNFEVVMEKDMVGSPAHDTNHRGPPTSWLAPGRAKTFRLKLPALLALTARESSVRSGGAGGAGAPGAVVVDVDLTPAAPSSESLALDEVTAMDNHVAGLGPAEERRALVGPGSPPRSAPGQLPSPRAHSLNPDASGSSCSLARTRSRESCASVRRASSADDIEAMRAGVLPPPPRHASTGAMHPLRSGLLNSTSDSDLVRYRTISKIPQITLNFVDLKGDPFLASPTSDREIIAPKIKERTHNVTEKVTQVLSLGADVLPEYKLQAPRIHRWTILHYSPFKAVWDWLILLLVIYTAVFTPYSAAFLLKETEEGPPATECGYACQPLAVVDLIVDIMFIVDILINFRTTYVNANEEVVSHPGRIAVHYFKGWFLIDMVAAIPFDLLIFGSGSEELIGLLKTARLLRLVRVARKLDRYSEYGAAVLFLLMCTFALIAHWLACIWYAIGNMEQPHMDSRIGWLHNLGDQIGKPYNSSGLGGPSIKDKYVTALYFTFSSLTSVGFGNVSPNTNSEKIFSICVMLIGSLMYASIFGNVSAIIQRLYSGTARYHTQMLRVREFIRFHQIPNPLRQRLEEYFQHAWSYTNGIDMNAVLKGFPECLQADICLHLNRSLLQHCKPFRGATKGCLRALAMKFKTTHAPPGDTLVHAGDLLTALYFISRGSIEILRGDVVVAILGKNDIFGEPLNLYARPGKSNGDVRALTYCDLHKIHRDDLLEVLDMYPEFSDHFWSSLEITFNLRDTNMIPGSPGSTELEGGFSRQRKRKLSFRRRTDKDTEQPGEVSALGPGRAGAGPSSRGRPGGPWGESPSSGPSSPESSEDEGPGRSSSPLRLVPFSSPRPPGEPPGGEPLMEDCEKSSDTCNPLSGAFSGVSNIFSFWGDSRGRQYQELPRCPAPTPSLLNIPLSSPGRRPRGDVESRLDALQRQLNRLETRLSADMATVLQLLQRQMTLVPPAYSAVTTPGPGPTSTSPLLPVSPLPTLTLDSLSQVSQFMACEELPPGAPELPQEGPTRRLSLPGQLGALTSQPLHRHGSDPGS
Assay: hERG current, PatchXpress 7000A automatic parallel patch clamp in hERG-transfected HEK 293 cells (Example 6)
Would you mind telling me the reported IC50 of each entry?
Express the result in µM but write the number alone.

**Query** Can you share its IC50? I mean this molecule: COc1ccc2c(c1)CN(C(=O)N1CCN(Cc3ccc4c(c3)OCO4)CC1)CCS2
**Result** 2.5

**Query** Repeat for the following molecule: COc1ccc2c(c1)CNCCS2
**Result** 7.03

**Query** Proceed to O=C(N1CCN(Cc2ccc3c(c2)OCO3)CC1)N1CCSc2ccccc2C1
**Result** 4.41

----------
Biological target: hERG current (Homo sapiens, UniProt Q12809)
Assay: hERG current, PatchXpress 7000A automatic parallel patch clamp in hERG-transfected HEK 293 cells (Example 6)
Details: 10 μM
Would you kindly list Mean % hERG Inhibition for each of these compounds?
Hi, when you answer, please include the unit after the number. Thanks!

**Query** Record request: Mean % hERG Inhibition value, item COc1ccc2c(c1)CN(C(=O)N1CCN(Cc3ccc4c(c3)OCO4)CC1)CCS2
**Result** 78.0%

**Query** And then O=C(O)C(=O)N1CCSc2ccccc2C1 , what is it?
**Result** 4.1%

**Query** Similarly, COc1ccc2c(c1)CN(C(=O)C(=O)O)CCS2(=O)=O ?
**Result** 7.4%

**Query** Okay, and O=C(NO)N1CCSc2ccccc2C1 ?
**Result** 9.5%

**Query** Let us now turn to COc1ccc2c(c1)CN(C(=O)N1CCCCC1)CCS2
**Result** 24.2%

**Query** Now the same for COC(=O)C(=O)N1CCSc2ccc(OC)cc2C1
**Result** 13.6%

**Query** Consider next the compound COc1ccc2c(c1)CN(C(=O)C(=O)[O-])CCS2.[Na+] in the same way.
**Result** 6.7%

**Query** Proceed to O=C(N1CCCCC1)N1CCSc2ccccc2C1
**Result** 47.3%

**Query** Do the same for COc1ccc2c(c1)CN(C)CCS2 please
**Result** 32.1%
